# Test system: 883617-216-R-J1-PDC complex spheroids, growth, % test/control
# Protocol Notes: Anticancer human tumor 883617-216-R-J1-PDC patient-derived bladder carcinoma cell line growth inhibition [AhR]; active = viability on the fitted dose curve at most 10% of control; inactive = the rest
# Recorded Conditions: second compound 1 µM; first compound 3.16 µM
Labels: active, inactive

molecule="O=C(C=Cc1cccc(S(=O)(=O)Nc2ccccc2)c1)NO + Cc1ccccc1N=Nc1ccc(NC(=O)c2ccnn2C)c(C)c1" class=inactive
molecule="COc1cccc2c1C(=O)c1c(O)c3c(c(O)c1C2=O)CC(O)(C(=O)CO)CC3OC1CC(N)C(O)C(C)O1 (stereo unspecified) + Cc1cncc(-c2nc(NCCc3c[nH]c4ccccc34)c3ncn(C(C)C)c3n2)c1" class=active
molecule="COc1ccc([C@@H](O)c2cc(-c3ncnc4cc(N5CCOCC5)ccc34)c(F)cc2Cl)nn1 + CC(CO)NC(=O)c1cc(-c2ccc(Cl)cc2)nn(-c2cnn(C)c2)c1=O" class=inactive
molecule="CC1(C)CCC(CN2CCN(c3ccc(C(=O)NS(=O)(=O)c4ccc(NCC5CCOCC5)c([N+](=O)[O-])c4)c(Oc4cnc5[nH]ccc5c4)c3)CC2)=C(c2ccc(Cl)cc2)C1 + Cc1ccccc1N=Nc1ccc(NC(=O)c2ccnn2C)c(C)c1" class=inactive
molecule="Nc1ccn(C2OC(CO)C(O)C2(F)F)c(=O)n1 (stereo unspecified) + CC(CO)NC(=O)c1cc(-c2ccc(Cl)cc2)nn(-c2cnn(C)c2)c1=O" class=inactive
molecule="NS(=O)(=O)OCC1CC(n2ccc3c(NC4CCc5ccccc54)ncnc32)CC1O (stereo unspecified) + Cc1ccccc1N=Nc1ccc(NC(=O)c2ccnn2C)c(C)c1" class=inactive

###

# Test system: 883617-216-R-J1-PDC complex spheroids, growth, % test/control
# Protocol Notes: Anticancer human tumor 883617-216-R-J1-PDC cell line growth inhibition [AhR];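 note: exposure lasted 7 days after dosing on day 3 of spheroid growth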
# Recorded Conditions: second compound 1 µM; first compound 0.0316 µM; active compounds read low
Threshold-based label: viability, T/C under 90% gives true, viability, T/C not under 90% gives false.

compound="CC(C)c1c(-c2ccccc2)nc2c(C#N)c[nH]n2c1=O + CC(CO)NC(=O)c1cc(-c2ccc(Cl)cc2)nn(-c2cnn(C)c2)c1=O" class=true
compound="Nc1ccn(C2OC(CO)C(O)C2(F)F)c(=O)n1 (stereo unspecified) + CC(CO)NC(=O)c1cc(-c2ccc(Cl)cc2)nn(-c2cnn(C)c2)c1=O" class=false
compound="NS(=O)(=O)OCC1CC(n2ccc3c(NC4CCc5ccccc54)ncnc32)CC1O (stereo unspecified) + Cc1cncc(-c2nc(NCCc3c[nH]c4ccccc34)c3ncn(C(C)C)c3n2)c1" class=false
compound="NS(=O)(=O)OCC1CC(n2ccc3c(NC4CCc5ccccc54)ncnc32)CC1O (stereo unspecified) + CC(CO)NC(=O)c1cc(-c2ccc(Cl)cc2)nn(-c2cnn(C)c2)c1=O" class=true

###

# System: 883617-216-R-J1-PDC complex spheroids, growth, % test/control
# Protocol Notes: Anticancer human tumor 883617-216-R-J1-PDC cell line growth inhibition [AhR];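 note: exposure lasted 7 days after dosing on day 3 of spheroid growth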
# Recorded Conditions: second compound 1 µM; first compound 0.3 µM; active compounds read low
Listed here are molecules together with their documented viability, T/C.
Attribute Measured: viability, T/C

molecule="CCc1c2c(nc3ccc(O)cc13)-c1cc3c(c(=O)n1C2)COC(=O)[C@]3(O)CC + Cc1cncc(-c2nc(NCCc3c[nH]c4ccccc34)c3ncn(C(C)C)c3n2)c1" readout_value=53.9%
molecule="CCc1c2c(nc3ccc(O)cc13)-c1cc3c(c(=O)n1C2)COC(=O)[C@]3(O)CC + CC(CO)NC(=O)c1cc(-c2ccc(Cl)cc2)nn(-c2cnn(C)c2)c1=O" readout_value=63.9%
molecule="O=C(C=Cn1cnc(-c2cc(C(F)(F)F)cc(C(F)(F)F)c2)n1)NNc1cnccn1 + Cc1ccccc1N=Nc1ccc(NC(=O)c2ccnn2C)c(C)c1" readout_value=44.7%
